Numbers sourced from PubChem BioAssay AID248.

Test system: L1210 leukemia ip in BDF1 mice, survival T/C
Protocol Details: NCI In Vivo Anticancer Drug Screen. Data for tumor model L1210 Leukemia (intraperitoneal) in B6D2F1 (BDF1) mice
Measurement Setup: endpoint: mean survival time; dose: 400.0 mg/kg/injection; schedule: Q01DX009 (ip); vehicle: gum acacia; higher = longer survival
Toxic doses and inconclusive results are not listed.
Measured Attribute: T/C

Would you please look over these solved cases?
> print(dat)
                                   compound  measured.attribute  reported.result
1  CCCCOc1ccc(/C=N/NC(=O)CNC(=O)Nc2cccc(C(F)(F)F)c2)cc1                 T/C  96 % of control
2         O=C(Nc1cccc(C(F)(F)F)c1)Nc1ccccn1                 T/C  89 % of control
3                    ON=C(c1ccccn1)c1ccccn1                 T/C  98 % of control

Incoming: Recorded T/C for CC1CCCCN1C(=O)Nc1cccc(C(F)(F)F)c1 (stereo not given) , please?
Outgoing: 102 % of control

Incoming: What value of measured T/C is listed for COc1cccc(CNc2ccc(C)c(Cl)c2)c1OC ?
Outgoing: 87 % of control
